Here we list compounds with their recorded MIC when tested on Candida Glabrata (ATCC 90030).
One number for each entry, in µg/mL.

CN(Cc1ccc(Cl)cc1)C(=O)c1ccc2cccnc2c1O	2
O=C(c1ccc2cccnc2c1O)N1CCCc2c(Cl)ccc(O)c21	1
O=C(c1ccc2cccnc2c1O)N1CCCc2c(F)cc(F)cc21	1
O=C(c1ccc2cccnc2c1O)N1CCCc2cc(F)ccc21	2
O=C(c1ccc2cccnc2c1O)N1CCC2CCCCC2C1 (centres unmarked)	2
O=C(c1ccc2cccnc2c1O)N1Cc2ccccc2C1	2

// each compound listed below needs its MIC
1. O=C(c1ccc2cccnc2c1O)N1C2CCCCC2C2CCCCC21 (centres unmarked)
2. O=C(c1ccc2cccnc2c1O)N1CCCc2c(F)cccc21
3. CN(C(=O)c1ccc2cccnc2c1O)c1ccc(Br)cc1

Response line:
1. 2.83
2. 2.83
3. 4

Batch: MIC for all items listed.
1. O=C(c1ccc2cccnc2c1O)N1CCOc2ccccc21
2. O=C(c1ccc2cccnc2c1O)N1CCCc2ccc(F)cc21

Response line:
2
2
